Below, each of the binders is paired with its reported IL-1β secretion, LPS treated monocytes, at 0.0001 µM value.
# targetEntity: T1, IL10Rα/IL2Rγ receptor (human) (UniProt Q13651)
# T1 sequence (looked up) 1: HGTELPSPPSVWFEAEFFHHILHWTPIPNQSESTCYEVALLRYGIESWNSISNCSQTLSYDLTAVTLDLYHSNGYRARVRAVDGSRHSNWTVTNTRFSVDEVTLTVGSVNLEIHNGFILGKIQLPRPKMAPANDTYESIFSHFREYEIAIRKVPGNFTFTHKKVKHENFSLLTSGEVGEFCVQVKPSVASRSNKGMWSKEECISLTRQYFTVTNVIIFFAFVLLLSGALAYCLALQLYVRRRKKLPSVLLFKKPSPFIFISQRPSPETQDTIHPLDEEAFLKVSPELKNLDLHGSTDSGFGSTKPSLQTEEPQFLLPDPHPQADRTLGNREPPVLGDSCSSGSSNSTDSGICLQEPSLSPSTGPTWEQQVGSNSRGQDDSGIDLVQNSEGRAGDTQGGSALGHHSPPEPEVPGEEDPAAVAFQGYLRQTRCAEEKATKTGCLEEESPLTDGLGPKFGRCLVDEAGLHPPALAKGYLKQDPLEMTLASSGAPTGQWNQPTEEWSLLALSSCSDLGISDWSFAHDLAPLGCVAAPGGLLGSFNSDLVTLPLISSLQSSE
# T1 sequence (looked up) 2: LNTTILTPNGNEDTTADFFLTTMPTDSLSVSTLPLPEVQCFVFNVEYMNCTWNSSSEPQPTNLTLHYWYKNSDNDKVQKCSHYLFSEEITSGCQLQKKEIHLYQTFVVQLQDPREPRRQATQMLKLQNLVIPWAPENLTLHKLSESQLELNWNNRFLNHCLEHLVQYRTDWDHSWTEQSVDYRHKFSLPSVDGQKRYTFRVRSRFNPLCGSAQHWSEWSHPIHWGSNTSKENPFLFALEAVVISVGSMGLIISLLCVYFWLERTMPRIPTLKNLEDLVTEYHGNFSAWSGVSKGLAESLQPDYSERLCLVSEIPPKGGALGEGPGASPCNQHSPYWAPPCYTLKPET
# testSummary: cell-based or functional assay
Numbers only; they are read as pg/mL.

Worked cases, IL-1β secretion, LPS treated monocytes, at 0.0001 µM given:
// query Give the value of IL-1β secretion, LPS treated monocytes, at 0.0001 µM reported for the following: hIL10Ra_VHH14 - hIL2Rg_VHH19, No linker, tag his (bispecific antibody, not shown: small tags and cut ends) QVQLQESGGGSVQAGGSLRLSCGASGYTYSSYCMGWFRQVPGKEREGVAVIDSDGSTSYADSVKGRFTISKDNGKNTLYLQMNSLKPEDTAMYYCAADLGHYRPPCGVLYLGMDYWGKGTQVTVSSQVQLQESGGGSVQAGGSLRLSCTASGFTFDDREMNWYRQAPGNECELVSTISSDGSTYYADSVKGRFTISQDNAKNTVYLQMDSVKPEDTAVYYCAADFMIAIQAPGAGCWGQGTQVTVSS
// result 5540

// query Answer with the recorded IL-1β secretion, LPS treated monocytes, at 0.0001 µM of hIL10Ra_VHH14 - hIL2Rg_VHH19, linker GGGSGGGS, tag his (bispecific antibody, not shown: small tags and cut ends) QVQLQESGGGSVQAGGSLRLSCGASGYTYSSYCMGWFRQVPGKEREGVAVIDSDGSTSYADSVKGRFTISKDNGKNTLYLQMNSLKPEDTAMYYCAADLGHYRPPCGVLYLGMDYWGKGTQVTVSSGGGSGGGSQVQLQESGGGSVQAGGSLRLSCTASGFTFDDREMNWYRQAPGNECELVSTISSDGSTYYADSVKGRFTISQDNAKNTVYLQMDSVKPEDTAVYYCAADFMIAIQAPGAGCWGQGTQVTVSS only.
// result 5950

Okay, now this binder:
// query Tell me measured IL-1β secretion, LPS treated monocytes, at 0.0001 µM for hIL10Ra_VHH14 - hIL2Rg_VHH19, linker GS, tag his (bispecific antibody, not shown: small tags and cut ends) QVQLQESGGGSVQAGGSLRLSCGASGYTYSSYCMGWFRQVPGKEREGVAVIDSDGSTSYADSVKGRFTISKDNGKNTLYLQMNSLKPEDTAMYYCAADLGHYRPPCGVLYLGMDYWGKGTQVTVSSGSQVQLQESGGGSVQAGGSLRLSCTASGFTFDDREMNWYRQAPGNECELVSTISSDGSTYYADSVKGRFTISQDNAKNTVYLQMDSVKPEDTAVYYCAADFMIAIQAPGAGCWGQGTQVTVSS please.
// result 5960
